Attribution: ChEMBL document CHEMBL2176988

Items are presented alongside their recorded Ki.
target.under.test: Neuronal acetylcholine receptor; alpha3/beta4 (Homo sapiens, UniProt P30926+P32297)
Sequence (P30926 whole entry): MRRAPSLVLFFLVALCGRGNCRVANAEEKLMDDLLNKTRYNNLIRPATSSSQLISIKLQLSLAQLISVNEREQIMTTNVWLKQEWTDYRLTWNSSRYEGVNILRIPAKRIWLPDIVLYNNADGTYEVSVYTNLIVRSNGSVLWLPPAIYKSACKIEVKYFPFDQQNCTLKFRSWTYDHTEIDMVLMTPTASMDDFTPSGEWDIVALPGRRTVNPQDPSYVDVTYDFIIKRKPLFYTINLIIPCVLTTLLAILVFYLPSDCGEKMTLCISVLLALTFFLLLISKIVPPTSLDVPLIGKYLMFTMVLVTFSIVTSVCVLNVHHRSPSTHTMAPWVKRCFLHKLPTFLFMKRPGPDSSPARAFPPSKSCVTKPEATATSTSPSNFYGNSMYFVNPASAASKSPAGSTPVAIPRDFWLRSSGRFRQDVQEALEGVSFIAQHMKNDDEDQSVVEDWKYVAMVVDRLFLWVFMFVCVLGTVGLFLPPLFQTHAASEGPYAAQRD
Sequence (P32297 whole entry): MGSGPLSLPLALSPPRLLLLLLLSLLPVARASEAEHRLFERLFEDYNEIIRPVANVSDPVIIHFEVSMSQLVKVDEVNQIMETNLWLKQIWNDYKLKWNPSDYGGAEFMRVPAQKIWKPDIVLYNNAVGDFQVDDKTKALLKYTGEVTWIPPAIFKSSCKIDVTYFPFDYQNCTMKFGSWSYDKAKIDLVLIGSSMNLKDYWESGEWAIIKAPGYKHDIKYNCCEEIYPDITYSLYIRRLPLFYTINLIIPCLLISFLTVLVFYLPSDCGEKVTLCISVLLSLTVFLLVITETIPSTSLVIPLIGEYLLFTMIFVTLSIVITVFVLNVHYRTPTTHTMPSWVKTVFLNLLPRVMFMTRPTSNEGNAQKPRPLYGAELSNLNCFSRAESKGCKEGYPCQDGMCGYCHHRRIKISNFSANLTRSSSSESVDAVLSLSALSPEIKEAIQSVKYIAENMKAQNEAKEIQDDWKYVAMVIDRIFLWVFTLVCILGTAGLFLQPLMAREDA
assay.info: Displacement of [3H]epibatidine from human alpha3beta4 nAChR expressed in CHO cells after 2 hrs by liquid scintillation counting
Type: cell-based
outcome.measure: Ki (µM)

compound	target.under.test	outcome.measure	units.text	qualifier.sign	observed.value
O=C(c1occc1Cl)N1CC2CNCC2C1 (stereo not drawn)	Neuronal acetylcholine receptor; alpha3/beta4 (Homo sapiens, UniProt P30926+P32297)	Ki	µM	=	2.4
O=C(c1ccc(Br)o1)N1C[C@@H]2CN[C@H](C2)C1	Neuronal acetylcholine receptor; alpha3/beta4 (Homo sapiens, UniProt P30926+P32297)	Ki	µM	=	1.5
O=C(c1ncco1)N1CC2CNCC2C1 (stereo not drawn)	Neuronal acetylcholine receptor; alpha3/beta4 (Homo sapiens, UniProt P30926+P32297)	Ki	µM	=	100
O=C(C1CC1)N1C[C@H]2CN[C@@H](C2)C1	Neuronal acetylcholine receptor; alpha3/beta4 (Homo sapiens, UniProt P30926+P32297)	Ki	µM	=	0.11
O=C(c1cc(Br)co1)N1CC2CNCC2C1 (stereo not drawn)	Neuronal acetylcholine receptor; alpha3/beta4 (Homo sapiens, UniProt P30926+P32297)	Ki	µM	=	7.7
O=C(c1ccc(Cl)o1)N1CC2CNCC(C2)C1	Neuronal acetylcholine receptor; alpha3/beta4 (Homo sapiens, UniProt P30926+P32297)	Ki	µM	=	6.4
COc1ccc(C(=O)N2CC3CNCC3C2)cc1 (stereo not drawn)	Neuronal acetylcholine receptor; alpha3/beta4 (Homo sapiens, UniProt P30926+P32297)	Ki	µM	=	8.4
N#Cc1ccoc1C(=O)N1CC2CNCC(C2)C1	Neuronal acetylcholine receptor; alpha3/beta4 (Homo sapiens, UniProt P30926+P32297)	Ki	µM	>	10
O=C(c1ccco1)N1C[C@H]2CN[C@@H](C2)C1	Neuronal acetylcholine receptor; alpha3/beta4 (Homo sapiens, UniProt P30926+P32297)	Ki	µM	=	1.7
O=C(c1ccncc1)N1CC2CNCC2C1 (stereo not drawn)	Neuronal acetylcholine receptor; alpha3/beta4 (Homo sapiens, UniProt P30926+P32297)	Ki	µM	=	5.4
O=C(c1ccccc1)N1CC2CNCC(C2)C1	Neuronal acetylcholine receptor; alpha3/beta4 (Homo sapiens, UniProt P30926+P32297)	Ki	µM	=	100
O=C(c1ccc(Cl)o1)N1C[C@H]2CN[C@@H](C2)C1	Neuronal acetylcholine receptor; alpha3/beta4 (Homo sapiens, UniProt P30926+P32297)	Ki	µM	=	5.2
O=C(c1ccc(Br)o1)N1C[C@H]2CN[C@@H](C2)C1	Neuronal acetylcholine receptor; alpha3/beta4 (Homo sapiens, UniProt P30926+P32297)	Ki	µM	=	3
